Recorded values, source patent US12077503B2.

test system: Galium (catchweed bedstraw, Galium aparine); test: Test A postemergence; format: in vivo; conditions: Galium, post-emergence, 240 h, 125 g ai/ha, Postemergence; visual injury after approximately 10 d; 0 to 100 scale where 0 is no effect and 100 is complete control; read-out: Plant response rating, Galium
VALUE TYPE: pest or weed control at 125 g/ha

{"ENTRY SMILES": "O=C1NC[C@H](c2cc(C(F)(F)F)cs2)[C@H]1C(=O)Nc1cccc(F)c1F", "VALUE TYPE": "pest or weed control at 125 g/ha", "EXPERIMENTAL VALUE": "30%"}
{"ENTRY SMILES": "CCOc1cccc([C@H]2CN(C)C(=O)[C@@H]2C(=O)Nc2ccc(F)cc2F)c1", "VALUE TYPE": "pest or weed control at 125 g/ha", "EXPERIMENTAL VALUE": "30%"}
{"ENTRY SMILES": "CSc1ccccc1NC(=O)[C@H]1C(=O)N(C)C[C@@H]1c1cc(C)c(Br)c(C)c1", "VALUE TYPE": "pest or weed control at 125 g/ha", "EXPERIMENTAL VALUE": "30%"}
